All values here come from PubChem BioAssay AID602370.

Overview of reported Potency across a group of molecules:
study target: 4'-phosphopantetheinyl transferase Sfp (Bacillus subtilis (strain 168))
method: qHTS Assay for Inhibitors of Bacillus subtilis Sfp phosphopantetheinyl transferase (PPTase): SAR Round 2
test conditions: purified Sfp enzyme, PPTase activity
This is one part of the list. Results filed as inconclusive are left out. Activity calls are given as the source filed them. Calls come from the whole dose curve; as a rule, active = well fitted inhibition curve with a large enough effect; inconclusive = small, poorly fitted or top-dose-only effect; inactive = no such curve, though single readings can be large or run the other way.
assay metric: Potency

| smiles repr | measurement |
| --- | --- |
| COc1ccnc(NC(=S)N2CCN(c3ncc(C(F)(F)F)cc3Cl)CC2)c1 | 290 nM (active) |
| Cc1cc(C)nc(NC(=S)N2CCN(c3ccc4nonc4c3)CC2)c1 | 6460 nM (active) |
| Cc1cc(C)nc(NC(=S)N2CCN(c3ccc(Cl)cc3C(F)(F)F)CC2)c1 | 580 nM (active) |
| COc1cccc(NC(=S)N2CCN(c3ccccc3C(F)(F)F)CC2)n1 | 3240 nM (active) |
